The entries below come with measured melting point values attached.

Example compounds with recorded melting point:
{"columns": ["input smiles", "melting point"],
 "data": [
  ["C[C@H](NS(=O)(=O)c1ccc(-c2c(C#N)c3ccc(C4CC4)cc3n2-c2ncccn2)nc1)C(F)(F)F", "181 to 184 °C"],
  ["NS(=O)(=O)c1ccc(-n2cc(C(F)(F)F)nc2-c2ccc(-c3cscn3)cc2)cc1F", "130 to 133 °C"],
  ["CC(=O)OCc1c(C)n(C[C@H]2C[C@@H]2C)c2c(OCc3ccc(F)cc3)nncc12", "122 to 123 °C"]
]}

Now examine the next entry.
Problem: Request the reported melting point associated with `CC(C)(C)c1cc(N(C(=O)CCC(=O)O)c2ccc(OC(=O)c3ccccc3)cc2)cc(C(C)(C)C)c1O`
Solution: 131 to 132 °C

====

The entries below come with measured melting point values attached.

{"columns": ["compound", "melting point"],
 "data": [
  ["Nc1c([N+](=O)[O-])cnn1-c1c(Cl)cc(C(F)(F)F)cc1Cl", "190 °C"],
  ["Cc1nc2ccccn2c(=O)c1CC1CCCCC1", "112 to 114 °C"],
  ["Cn1ncc(-c2ccc(O)cc2)cc1=O", "296 to 298 °C"],
  ["CCCCc1ncc(/C=C(\\Cc2cccs2)C(=O)O)n1Cc1cc(Cl)c(C(=O)O)cc1Cl", "145 °C"],
  ["CC(C)(CO)NC(=O)c1ccccc1", "80 to 82 °C"]
]}

Now examine the next entry.
Problem: Request the reported melting point associated with `COc1cc(N(C(=O)C[C@H](N)C(=O)O)S(=O)(=O)c2ccc3c(ccn3C)c2)cc(OC)c1OC`
Solution: 156 to 159 °C

====

The entries below come with measured melting point values attached.

Example compounds with recorded melting point:
{"columns": ["compound", "melting point"],
 "data": [
  ["O=c1c(CCc2cccnc2)cc2cccnc2n1-c1cccc([N+](=O)[O-])c1", "221 to 223 °C"],
  ["CC(C)N1C(=O)c2cncnc2N(C(=O)CN2CCN(C)CC2)c2ccccc21", "133 to 135 °C"],
  ["O=C(O)c1ccc2c(c1)C(=O)c1ccccc1S2(=O)=O", "276 °C"]
]}

Problem: Request the reported melting point associated with `NC(=S)N(c1ccccc1)c1cccc(NNC=O)c1`
Solution: 143 to 145 °C

Problem: Request the reported melting point associated with `COC(=O)c1cc2cc(OCc3ccccc3)ccc2n1CC(=O)N(C)CCc1ccccc1`
Solution: 155 to 156 °C

Problem: Request the reported melting point associated with Cc1ncc2c(n1)N(CC(O)CO)C(=O)CO2 (stereo not given)
Solution: 70 to 72 °C

Problem: Request the reported melting point associated with O=CNC1=NN(c2ccccc2)C(c2ccccc2)C1 (stereo not given)
Solution: 158 to 160 °C

Problem: Request the reported melting point associated with O=C1c2cc(OCc3ccccc3)ccc2OCC1Oc1ccccc1 (stereo not given)
Solution: 100 to 102 °C

Problem: Request the reported melting point associated with OC1CCCc2nc3ccccc3c(NCc3cccc(F)c3)c21 (stereo not given)
Solution: 128 °C

Problem: Request the reported melting point associated with CC(C)C(NC(=O)c1ccc(C(=O)NCC(=O)O)cc1)C(=O)N1CCCC1C(=O)NC(C(=O)C(F)(F)F)C(C)C (mixture of isomers)
Solution: 99 to 103 °C
